molecular target: AHR (Homo sapiens); assay: In vitro assay 1: antagonism in human cell line (transactivation assay, kynurenic acid prestimulated); settings: Assay 1: AHR-luc Hum Antagonism IC50 [M], 150 μM kynurenic acid, 20 hours, firefly luciferase
Listed next: entries and their corresponding log10 IC50.
Short version: log10 scale, IC50, M.

Worked cases, log10 IC50 given:
MOLECULE: O=C(N[C@H]1CCC[C@@H]1O)c1cc(-c2ccc(Cl)cc2)nn(-c2cccc(F)c2)c1=O (single isomer, unassigned) [Example 124]
MEASURED TARGET: AHR (Homo sapiens)
log10 IC50: -7.44

MOLECULE: Cc1ccc(-c2cc(C(=O)NC(CO)C(C)C)c(=O)n(-c3ccccc3)n2)cc1 (stereo not drawn)
MEASURED TARGET: AHR (Homo sapiens)
log10 IC50: -7.04

MOLECULE: Cc1ccc(-c2cc(C(=O)NC(CO)C3CC3)c(=O)n(-c3cccc(F)c3)n2)cc1 (racemic)
MEASURED TARGET: AHR (Homo sapiens)
log10 IC50: -7.08

MOLECULE: COc1ccc(-c2cc(C(=O)N[C@@H](C)[C@H](C)O)c(=O)n(-c3cccc(F)c3)n2)cc1 (relative stereo)
MEASURED TARGET: AHR (Homo sapiens)
log10 IC50: -7.54

MOLECULE: Cc1ccc(-c2cc(C(=O)N[C@H](CO)C(C)C)c(=O)n(-c3ccccc3)n2)cc1
MEASURED TARGET: AHR (Homo sapiens)
log10 IC50: -7.39

MOLECULE: O=C(NC(CO)C1CC1)c1cc(-c2ccc(Cl)cc2)nn(-c2cccc(F)c2)c1=O (racemic) [Example 193]
MEASURED TARGET: AHR (Homo sapiens)
log10 IC50: -7.60

MOLECULE: CC(C)[C@@H](CO)NC(=O)c1cc(-c2ccc(Cl)cc2)nn(-c2cc(F)cc(F)c2)c1=O
MEASURED TARGET: AHR (Homo sapiens)
log10 IC50: -8.31

MOLECULE: O=C(NCC(O)C(F)F)c1cc(-c2ccc(Cl)cc2)nn(-c2cccc(F)c2)c1=O (single isomer, unassigned; (-)) [Example 222]
MEASURED TARGET: AHR (Homo sapiens)
log10 IC50: -7.31

MOLECULE: O=C(NCC(O)C(F)(F)F)c1cc(-c2ccc(Cl)c(Cl)c2)nn(-c2cccc(F)c2)c1=O (single isomer, unassigned) [Example 308]
MEASURED TARGET: AHR (Homo sapiens)
log10 IC50: -6.75

MOLECULE: CC[C@@H](CO)NC(=O)c1cc(-c2ccc(C(F)F)cc2)nn(-c2cccc(F)c2)c1=O
MEASURED TARGET: AHR (Homo sapiens)
log10 IC50: -7.92

log10 IC50 for CC(C)[C@@H](CO)NC(=O)c1cc(-c2ccc(OC(F)(F)F)cc2)nn(-c2cccc(F)c2)c1=O ?
-8.16

###

biological target: AHR (Homo sapiens); experiment: In vitro assay 1: antagonism in human cell line (transactivation assay, kynurenic acid prestimulated); conditions: Assay 1: AHR-luc Hum Antagonism IC50 [M], 150 μM kynurenic acid, 20 hours, firefly luciferase
Quick reference: IC50 of the listed items.
Expressed in M, but write only the number.

Sample records with IC50:
COMPOUND: Cc1cccc(-n2nc(-c3ccc(Cl)cc3)cc(C(=O)N[C@@H](C)CO)c2=O)c1 [Example 369]
EXPERIMENTAL RESULT: 9.73e-07
//
COMPOUND: CC(C)(CO)NC(=O)c1cc(-c2ccc(Cl)cc2)nn(-c2cccc(F)c2)c1=O [Example 186]
EXPERIMENTAL RESULT: 1.88e-07
//
COMPOUND: O=C(NC(CO)C1CCOC1)c1cc(-c2ccc(Cl)c(Cl)c2)nn(-c2cccc(F)c2)c1=O (stereo not shown) [Example 307]
EXPERIMENTAL RESULT: 2.22e-07

AHR (Homo sapiens) / IC50 / C[C@@H](CO)NC(=O)c1cc(-c2ccc(C(F)F)cc2)nn(-c2cccc(F)c2)c1=O [Example 93] : value?
3.02e-08

###

target: AHR (Homo sapiens); test: In vitro assay 1: antagonism in human cell line (transactivation assay, kynurenic acid prestimulated); conditions: Assay 1: AHR-luc Hum Antagonism IC50 [M], 150 μM kynurenic acid, 20 hours, firefly luciferase
REPORTED PROPERTY: IC50 (M)
Numeric answer only, unit M assumed.

Completed entries (count: 5):
MOLECULE: O=C(NC(CO)CO)c1cc(-c2ccc(Cl)cc2)nn(-c2cccc(F)c2)c1=O [Example 228]
MEASURED TARGET: AHR (Homo sapiens)
MEASUREMENT UNIT: M
IC50: 3.35e-07
//
MOLECULE: O=C(NC(CO)C1CCOC1)c1cc(-c2ccc(OC(F)(F)F)cc2)nn(-c2cccc(F)c2)c1=O (single isomer, unassigned) [Example 175]
MEASURED TARGET: AHR (Homo sapiens)
MEASUREMENT UNIT: M
IC50: 2.91e-08
//
MOLECULE: O=C(NC(CO)C1CCOC1)c1cc(-c2ccc(OC(F)F)cc2)nn(-c2cccc(F)c2)c1=O (single isomer, unassigned) [Example 145]
MEASURED TARGET: AHR (Homo sapiens)
MEASUREMENT UNIT: M
IC50: 9.33e-08
//
MOLECULE: C[C@H](O)[C@H](C)NC(=O)c1cc(-c2ccc(Cl)cc2)nn(-c2cc(Cl)cc(Cl)c2)c1=O (relative stereo) [Example 312]
MEASURED TARGET: AHR (Homo sapiens)
MEASUREMENT UNIT: M
IC50: 5.88e-07
//
MOLECULE: N#Cc1cccc(-n2nc(-c3ccc(Cl)cc3)cc(C(=O)NCC(O)C(F)(F)F)c2=O)c1 (single isomer, unassigned) [Example 363]
MEASURED TARGET: AHR (Homo sapiens)
MEASUREMENT UNIT: M
IC50: 2.22e-07

Consider the additional molecule presented here.
What value of IC50 has been reported for the following molecule? CC(C)[C@@H](CO)NC(=O)c1cc(-c2ccc(Cl)cc2)nn(-c2ccccc2)c1=O [Example 75]
3.45e-08

###

# Lookup of reported pIC50 keyed by entry
tested on: AHR-regulated gene CYP1A1; test: In vitro assay 3: AHR-regulated CYP1A1 expression in human cell line (U937, qPCR); settings: read-out: Assay 3: Hum CYP1A1 Antagonism IC50; U937 cells, 200 μM KA, 6 hours, qPCR
Reminder that pIC50 means the negative base-10 logarithm of the concentration expressed in mol/L.

Guide cases for pIC50, answers given:
COMPOUND: CC(C)C(O)CNC(=O)c1cc(-c2ccc(Cl)cc2)nn(-c2cccc(F)c2)c1=O (single isomer, unassigned)
EXPERIMENTAL RESULT: 6.75
--
COMPOUND: Cc1ccc(-c2cc(C(=O)NCC(O)C(C)C)c(=O)n(-c3cc(F)cc(F)c3)n2)cc1 (single isomer, unassigned) [Example 58]
EXPERIMENTAL RESULT: 6.87
--
COMPOUND: COc1ccc(-c2cc(C(=O)NC(CO)C(F)(F)F)c(=O)n(-c3cccc(F)c3)n2)cc1 (single isomer, unassigned) [Example 102]
EXPERIMENTAL RESULT: 7.36
--
COMPOUND: CC(C)C(O)CNC(=O)c1cc(-c2ccc(Cl)cc2)nn(-c2cc(F)cc(F)c2)c1=O (single isomer, unassigned) [Example 50]
EXPERIMENTAL RESULT: 6.82
--
COMPOUND: O=C(NCC(O)C(F)(F)F)c1cc(-c2ccc(Cl)cc2)nn(-c2cccc(F)c2)c1=O (single isomer, unassigned) [Example 27]
EXPERIMENTAL RESULT: 6.61

API: the following record is the query input.
Recorded pIC50 for Cc1ccc(-c2cc(C(=O)NCC(O)C(C)C)c(=O)n(-c3cc(F)cc(F)c3)n2)cc1 (single isomer, unassigned) [Example 57] , please?
7.42

###

molecules and their reported IC50
Target: AHR (Homo sapiens, UniProt P35869)
Sequence (P35869 11-848): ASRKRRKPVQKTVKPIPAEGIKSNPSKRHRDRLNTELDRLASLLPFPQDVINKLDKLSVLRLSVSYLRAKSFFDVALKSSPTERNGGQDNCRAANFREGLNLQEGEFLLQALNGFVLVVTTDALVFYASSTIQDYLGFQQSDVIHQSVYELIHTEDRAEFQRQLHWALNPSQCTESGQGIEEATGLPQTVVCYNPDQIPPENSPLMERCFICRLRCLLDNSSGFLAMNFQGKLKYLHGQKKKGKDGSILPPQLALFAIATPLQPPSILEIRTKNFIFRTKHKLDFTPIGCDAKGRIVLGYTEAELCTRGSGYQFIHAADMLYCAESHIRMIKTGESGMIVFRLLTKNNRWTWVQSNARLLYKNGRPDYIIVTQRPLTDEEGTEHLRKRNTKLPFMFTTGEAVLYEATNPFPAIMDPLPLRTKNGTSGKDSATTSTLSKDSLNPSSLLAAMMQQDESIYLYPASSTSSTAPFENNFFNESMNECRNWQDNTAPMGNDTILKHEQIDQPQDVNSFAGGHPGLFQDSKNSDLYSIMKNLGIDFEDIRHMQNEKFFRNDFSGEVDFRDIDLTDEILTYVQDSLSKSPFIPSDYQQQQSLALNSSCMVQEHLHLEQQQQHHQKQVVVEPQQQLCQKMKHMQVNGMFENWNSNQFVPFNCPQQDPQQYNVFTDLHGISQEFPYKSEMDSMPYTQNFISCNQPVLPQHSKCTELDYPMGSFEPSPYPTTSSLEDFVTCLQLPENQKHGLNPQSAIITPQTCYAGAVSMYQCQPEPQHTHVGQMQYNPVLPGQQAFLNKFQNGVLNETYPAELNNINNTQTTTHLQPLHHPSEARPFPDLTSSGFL
Test: In vitro assay 1: antagonism in human cell line (transactivation assay, kynurenic acid prestimulated)
Conditions: Assay 1: AHR-luc Hum Antagonism IC50 [M], 150 μM kynurenic acid, 20 hours, firefly luciferase
Answer with a number only, understood to be in M.

Example entries and their recorded answers appear below.
MOLECULE: O=C(NC(CO)C1CC1)c1cc(-c2ccc(C(F)(F)F)cc2)nn(-c2cccc(F)c2)c1=O (racemic) [Example 267]
MEASUREMENT UNIT: M
EXPERIMENTAL RESULT: 2.9e-08
--
MOLECULE: CC(C)OC[C@H](NC(=O)c1cc(-c2ccc(Cl)cc2)nn(-c2cccc(F)c2)c1=O)C(C)(C)O
MEASUREMENT UNIT: M
EXPERIMENTAL RESULT: 9.4e-07
--
MOLECULE: O=C(NC(CO)Cc1ccccn1)c1cc(-c2ccc(Cl)cc2)nn(-c2cccc(F)c2)c1=O (racemic)
MEASUREMENT UNIT: M
EXPERIMENTAL RESULT: 1.34e-07
--
MOLECULE: COC[C@@H](CO)NC(=O)c1cc(-c2ccc(Cl)cc2)nn(-c2cccc(F)c2)c1=O
MEASUREMENT UNIT: M
EXPERIMENTAL RESULT: 9.54e-08

Which IC50 value is on record for Cc1ccc(-c2cc(C(=O)NCC(O)C(C)C)c(=O)n(-c3cccc(F)c3)n2)cc1 (stereo not drawn) [Example 10] ?
1.2e-07

Please look up its IC50: CC(NC(=O)c1cc(-c2ccc(Cl)cc2)nn(-c2cccc(F)c2)c1=O)C(O)C(F)(F)F (racemic) [Example 216]
1.16e-07

Find the recorded IC50 belonging to CC(NC(=O)c1cc(-c2ccc(Cl)cc2)nn(-c2cccc(F)c2)c1=O)C(O)CO (single isomer, unassigned) [Example 360] and report it.
1.39e-08
